# Assay explanation: Pharmacokinetics of rivaroxaban in rats after avitinib or gefitinib pretreatment
# Assay type: in vivo, Sprague–Dawley (SD) rats
# Condition info: male, Sprague-Dawley, rat, plasma, oral, plasma concentration of rivaroxaban, 2 h; gefitinib group, Mean
# Method: Eighteen male Sprague–Dawley (SD) rats weighing 300 ± 20 g were provided by the Experimental Animal Center of Wenzhou Medical University (Wenzhou, China) and kept under controlled conditions at a temperature of 23 ± 2 °C, relative humidity of 50 ± 10%, and 12 h light–dark cycle. Eighteen male SD rats were randomly assigned to three groups: avitinib, gefitinib, and control, with six rats per group. […] All assays were performed in triplicate, and the results are expressed as mean ± standard deviation. […]
Assay readout: concentration at 2 h (ng/mL)
Express the result in ng/mL but write the number alone.

Query: // query concentration at 2 h value for entry O=C(NC[C@H]1CN(c2ccc(N3CCOCC3=O)cc2)C(=O)O1)c1ccc(Cl)s1
Result: 7180

* * *

# System under test: rat liver microsomes (RLMs)
# Assay explanation: Inhibitory mechanism (Ki, αKi, Lineweaver-Burk plots) in RLMs
# Condition info: read-out: inhibitory constant (Ki), substrate rivaroxaban
Assay readout: Ki
Output should be the measured figure followed by the unit it is expressed in.

Query: Kindly state the measured Ki obtained for C=CC(=O)Nc1cccc(Oc2nc(Nc3ccc(N4CCN(C)CC4)c(F)c3)nc3[nH]ccc23)c1 with rat liver microsomes (RLMs).
Result: 3.24 µM

* * *

# Assay explanation: Pharmacokinetics of rivaroxaban in rats after avitinib or gefitinib pretreatment
# Assay type: in vivo, Sprague–Dawley (SD) rats
# Condition info: male, Sprague-Dawley, rat, plasma, oral, 10 mg/kg, rivaroxaban ng/ml mean, control (rivaroxaban alone) group, mean of rats 13-18, time 12
Assay readout: concentration at 12 h (ng/mL)
Express the result in ng/mL but write the number alone.

Query: // query concentration at 12 h value for entry O=C(NC[C@H]1CN(c2ccc(N3CCOCC3=O)cc2)C(=O)O1)c1ccc(Cl)s1
Result: 76.8

* * *

# Assay explanation: Pharmacokinetics of rivaroxaban in rats after avitinib or gefitinib pretreatment
# Format: in vivo, Sprague–Dawley (SD) rats
# Condition info: male, Sprague-Dawley, rat, plasma, po, 10 mg/kg, gefitinib group, Mean
Assay readout: Tmax

Query: // query Tmax value for entry O=C(NC[C@H]1CN(c2ccc(N3CCOCC3=O)cc2)C(=O)O1)c1ccc(Cl)s1
Result: 3.17 h

* * *

# Assay explanation: Pharmacokinetics of rivaroxaban in rats after avitinib or gefitinib pretreatment
# Format: in vivo, Sprague–Dawley (SD) rats
# Condition info: male, Sprague-Dawley, rat, plasma, oral, rivaroxaban ng/ml mean, 艾维替尼 (avitinib) group, mean of rats 1-6, time 3
Assay readout: concentration at 3 h (ng/mL)
Express the result in ng/mL but write the number alone.

Query: // query concentration at 3 h value for entry O=C(NC[C@H]1CN(c2ccc(N3CCOCC3=O)cc2)C(=O)O1)c1ccc(Cl)s1 [rivaroxaban, Rivaroxaban]
Result: 1390

* * *

# Assay explanation: Pharmacokinetics of rivaroxaban in rats after avitinib or gefitinib pretreatment
# Format: in vivo, Sprague–Dawley (SD) rats
# Condition info: male, Sprague-Dawley, rat, plasma, oral, plasma concentration of rivaroxaban, 4 h; gefitinib group, single rats No1-No6
Assay readout: concentration at 4 h (ng/mL)
Express the result in ng/mL but write the number alone.

Query: // query concentration at 4 h value for entry O=C(NC[C@H]1CN(c2ccc(N3CCOCC3=O)cc2)C(=O)O1)c1ccc(Cl)s1 [rivaroxaban, Rivaroxaban]
Result: 6780
